biological target: Carbonic anhydrase 6 (Homo sapiens); assay: Inhibition of human recombinant carbonic anhydrase 6 preincubated for 15 mins to 72 hrs measured after 6 hrs by stopped flow CO2 hydration method
Sequence (P23280 whole entry): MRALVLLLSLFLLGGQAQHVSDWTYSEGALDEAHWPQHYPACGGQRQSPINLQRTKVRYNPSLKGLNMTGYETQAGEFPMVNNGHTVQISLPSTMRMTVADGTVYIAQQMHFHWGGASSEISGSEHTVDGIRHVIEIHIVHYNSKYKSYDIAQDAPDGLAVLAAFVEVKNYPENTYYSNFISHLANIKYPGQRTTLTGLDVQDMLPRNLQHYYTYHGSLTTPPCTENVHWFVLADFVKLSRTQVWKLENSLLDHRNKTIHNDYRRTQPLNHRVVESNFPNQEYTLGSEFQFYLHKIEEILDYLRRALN
measurement_type: pKi
Give bare numbers, as −log10 of the molar value.

Query string: Query (compound): CCOP(=S)(OCC)Oc1ccc2c(C)c(Cl)c(=O)oc2c1 [COUMAPHOS] ; field requested: pKi
Result string: 5.65

# input for lookup
Query string: Query (compound): Oc1ccc2ccccc2n1 ; field requested: pKi
Result string: 7.48

----------
target: Carbonic anhydrase 12 (Homo sapiens); assay: Inhibition of human recombinant carbonic anhydrase 12 preincubated for 15 mins to 72 hrs measured after 15 mins by stopped flow CO2 hydration method; conditions: tested as the Zn salt or complex
measurement_type: Ki (µM)
Answers are plain numbers, in µM.

Query string: Give recorded Ki with Carbonic anhydrase 12 (Homo sapiens) for the following compound: [O-][n+]1ccccc1S [PYRITHIONE ZINC]
Result string: 5.4

----------
biological target: Carbonic anhydrase 3 (Homo sapiens, UniProt P07451); experiment: Inhibition of human recombinant carbonic anhydrase 3 preincubated for 15 mins to 72 hrs measured after 6 hrs by stopped flow CO2 hydration method; settings: tested as the Zn salt or complex
Sequence (P07451 whole entry): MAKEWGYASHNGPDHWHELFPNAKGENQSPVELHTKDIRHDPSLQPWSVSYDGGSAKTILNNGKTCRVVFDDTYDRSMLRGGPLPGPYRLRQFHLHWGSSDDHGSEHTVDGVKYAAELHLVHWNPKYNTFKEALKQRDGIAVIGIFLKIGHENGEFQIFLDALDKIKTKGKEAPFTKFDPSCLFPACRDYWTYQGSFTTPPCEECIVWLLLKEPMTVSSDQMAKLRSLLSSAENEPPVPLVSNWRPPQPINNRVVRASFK
measurement_type: pKi
Answers are plain numbers, as −log10 of the molar value.

Query string: Query (compound): [O-][n+]1ccccc1S [PYRITHIONE ZINC] ; field requested: pKi
Result string: 5.79

----------
molecular target: Carbonic anhydrase 5B, mitochondrial (Homo sapiens, UniProt Q9Y2D0); assay: Inhibition of human recombinant carbonic anhydrase 5B preincubated for 15 mins to 72 hrs measured after 15 mins by stopped flow CO2 hydration method; settings: tested as the Zn salt or complex
Sequence (Q9Y2D0 whole entry): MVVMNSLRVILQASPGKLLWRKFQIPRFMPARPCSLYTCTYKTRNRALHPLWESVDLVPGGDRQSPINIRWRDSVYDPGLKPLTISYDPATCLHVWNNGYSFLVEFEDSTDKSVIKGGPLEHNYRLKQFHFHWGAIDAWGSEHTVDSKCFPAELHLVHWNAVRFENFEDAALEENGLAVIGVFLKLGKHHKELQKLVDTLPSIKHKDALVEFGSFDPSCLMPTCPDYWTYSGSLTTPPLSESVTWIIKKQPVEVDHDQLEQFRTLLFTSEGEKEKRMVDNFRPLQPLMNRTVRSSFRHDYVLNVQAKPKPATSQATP
measurement_type: Ki (µM)
Give bare numbers, in µM.

Query string: Query (compound): [O-][n+]1ccccc1S [PYRITHIONE ZINC] ; field requested: Ki
Result string: 3.55

----------
molecular target: Carbonic anhydrase 4 (Homo sapiens, UniProt P22748); assay: Inhibition of human recombinant carbonic anhydrase 4 preincubated for 15 mins to 72 hrs measured after 6 hrs by stopped flow CO2 hydration method; settings: tested as the Zn salt or complex
Sequence (P22748 whole entry): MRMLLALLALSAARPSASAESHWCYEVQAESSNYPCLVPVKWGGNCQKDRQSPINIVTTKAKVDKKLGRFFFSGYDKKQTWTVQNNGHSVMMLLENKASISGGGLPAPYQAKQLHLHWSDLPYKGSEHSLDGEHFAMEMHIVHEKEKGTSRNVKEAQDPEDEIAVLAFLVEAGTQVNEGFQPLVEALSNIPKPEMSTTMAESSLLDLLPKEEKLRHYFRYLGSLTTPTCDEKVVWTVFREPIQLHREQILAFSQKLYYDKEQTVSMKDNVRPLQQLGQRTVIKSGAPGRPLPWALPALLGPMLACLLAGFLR
measurement_type: pKi
Numbers only, as −log10 of the molar value.

Query string: Query (compound): [O-][n+]1ccccc1S ; field requested: pKi
Result string: 5.21

----------
target: Carbonic anhydrase 5A, mitochondrial (Homo sapiens, UniProt P35218); test: Inhibition of human recombinant carbonic anhydrase 5A preincubated for 15 mins to 72 hrs measured after 6 hrs by stopped flow CO2 hydration method
Sequence (P35218 whole entry): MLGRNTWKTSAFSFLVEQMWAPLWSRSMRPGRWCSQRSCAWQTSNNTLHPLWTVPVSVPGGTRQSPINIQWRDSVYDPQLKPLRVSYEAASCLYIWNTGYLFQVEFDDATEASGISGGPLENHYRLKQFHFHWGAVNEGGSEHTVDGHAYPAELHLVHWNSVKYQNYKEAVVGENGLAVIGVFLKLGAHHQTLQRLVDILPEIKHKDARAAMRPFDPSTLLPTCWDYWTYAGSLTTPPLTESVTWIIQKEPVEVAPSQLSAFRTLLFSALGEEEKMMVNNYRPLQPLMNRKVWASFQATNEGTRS
measurement_type: Ki
Express the reported value numerically, then name its unit.

Query string: Query (compound): Oc1ccc2ccccc2n1 ; field requested: Ki
Result string: 410 nM

# input for lookup
Query string: Query (compound): CCOP(=S)(OCC)Oc1ccc2c(C)c(Cl)c(=O)oc2c1 [COUMAPHOS] ; field requested: Ki
Result string: 5090 nM

----------
biological target: Carbonic anhydrase 7 (Homo sapiens, UniProt P43166); assay: Inhibition of human recombinant carbonic anhydrase 7 preincubated for 15 mins to 72 hrs measured after 15 mins by stopped flow CO2 hydration method; details: tested as the Zn salt or complex
Sequence (P43166 whole entry): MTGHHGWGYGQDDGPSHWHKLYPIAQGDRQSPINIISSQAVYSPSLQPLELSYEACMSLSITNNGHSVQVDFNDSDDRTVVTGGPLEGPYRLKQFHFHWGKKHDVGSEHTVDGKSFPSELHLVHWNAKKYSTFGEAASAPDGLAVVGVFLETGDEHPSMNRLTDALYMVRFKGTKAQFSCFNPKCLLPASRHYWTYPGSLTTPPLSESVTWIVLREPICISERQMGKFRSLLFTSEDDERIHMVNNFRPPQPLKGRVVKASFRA
measurement_type: Ki (µM)
One number for each entry, in µM.

Query string: Query (compound): [O-][n+]1ccccc1S ; field requested: Ki
Result string: 7.76

----------
target: Carbonic anhydrase 1 (Homo sapiens, UniProt P00915); assay: Inhibition of human recombinant carbonic anhydrase 1 preincubated for 15 mins to 72 hrs measured after 15 mins by stopped flow CO2 hydration method; conditions: tested as the Zn salt or complex
Sequence (P00915 whole entry): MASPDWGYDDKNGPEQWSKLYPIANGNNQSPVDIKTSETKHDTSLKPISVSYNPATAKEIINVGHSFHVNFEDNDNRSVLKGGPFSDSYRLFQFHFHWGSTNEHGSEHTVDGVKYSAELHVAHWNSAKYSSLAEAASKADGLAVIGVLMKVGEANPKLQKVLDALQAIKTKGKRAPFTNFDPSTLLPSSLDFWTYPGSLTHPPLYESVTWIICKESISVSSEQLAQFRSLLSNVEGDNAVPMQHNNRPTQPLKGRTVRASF
pKi: −log10 of the molar value.
measurement_type: pKi

Query string: Query (molecule): [O-][n+]1ccccc1S ; field requested: pKi
Result string: < 3.70

----------
target: Carbonic anhydrase 13 (Homo sapiens); assay: Inhibition of human recombinant carbonic anhydrase 13 preincubated for 15 mins to 72 hrs measured after 6 hrs by stopped flow CO2 hydration method
measurement_type: pKi
Give bare numbers, as −log10 of the molar value.

Query string: Query (compound): Oc1ccc2ccccc2n1 ; field requested: pKi
Result string: 7.19

# input for lookup
Query string: Query (compound): CCOP(=S)(OCC)Oc1ccc2c(C)c(Cl)c(=O)oc2c1 ; field requested: pKi
Result string: 5.37

----------
Task for the reader: assign each of the following molecules its reported pKi.
target: Carbonic anhydrase 14 (Homo sapiens, UniProt Q9ULX7); assay: Inhibition of human recombinant carbonic anhydrase 14 preincubated for 15 mins to 72 hrs measured after 6 hrs by stopped flow CO2 hydration method
Sequence (Q9ULX7 whole entry): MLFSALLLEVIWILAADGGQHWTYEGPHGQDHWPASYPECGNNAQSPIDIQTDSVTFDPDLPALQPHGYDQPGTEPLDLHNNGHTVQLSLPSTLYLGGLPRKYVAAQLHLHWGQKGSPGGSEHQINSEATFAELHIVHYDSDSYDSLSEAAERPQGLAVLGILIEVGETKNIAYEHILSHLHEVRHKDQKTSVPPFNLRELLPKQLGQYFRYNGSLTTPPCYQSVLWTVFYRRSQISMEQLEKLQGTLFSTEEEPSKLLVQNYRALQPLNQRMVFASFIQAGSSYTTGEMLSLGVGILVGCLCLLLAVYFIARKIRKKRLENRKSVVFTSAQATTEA
Give bare numbers, as −log10 of the molar value.

Query string: Query (molecule): Oc1ccc2ccccc2n1 ; field requested: pKi
Result string: 7.44

# input for lookup
Query string: Query (molecule): CCOP(=S)(OCC)Oc1ccc2c(C)c(Cl)c(=O)oc2c1 [COUMAPHOS] ; field requested: pKi
Result string: 5.38

----------
Task for the reader: assign each of the following compounds its reported Ki.
target: Carbonic anhydrase 1 (Homo sapiens); assay: Inhibition of human recombinant carbonic anhydrase 1 preincubated for 15 mins to 72 hrs measured after 6 hrs by stopped flow CO2 hydration method

Reference set, count: 4
Query string: Query (compound): CCOP(=S)(OCC)Oc1ccc2c(C)c(Cl)c(=O)oc2c1 ; field requested: Ki
Result string: 61.7 µM

Query string: Query (compound): Oc1ccc2ccccc2n1 ; field requested: Ki
Result string: 6.23 µM

Query string: Query (compound): O=C(S)c1ccccc1 ; field requested: Ki
Result string: 10.8 µM

Query string: Query (compound): O/N=c1/ccc2ccccc2o1 ; field requested: Ki
Result string: 0.009 µM

# input for lookup
Query string: Query (compound): Cc1cc(C)o/c(=N/O)c1 ; field requested: Ki
Result string: 0.009 µM

----------
Task for the reader: assign each of the following compounds its reported pKi.
biological target: Carbonic anhydrase 7 (Homo sapiens, UniProt P43166); test: Inhibition of human recombinant carbonic anhydrase 7 preincubated for 15 mins to 72 hrs measured after 6 hrs by stopped flow CO2 hydration method
One number for each entry, as −log10 of the molar value.

Query string: Query (compound): O=C(S)c1ccccc1 ; field requested: pKi
Result string: 5.24

Query string: Query (compound): CCOP(=S)(OCC)Oc1ccc2c(C)c(Cl)c(=O)oc2c1 ; field requested: pKi
Result string: 5.33

Query string: Query (compound): O/N=c1/ccc2ccccc2o1 ; field requested: pKi
Result string: 6.08

Query string: Query (compound): Oc1ccc2ccccc2n1 ; field requested: pKi
Result string: 6.38

# input for lookup
Query string: Query (compound): Cc1cc(C)o/c(=N/O)c1 ; field requested: pKi
Result string: 6.57

----------
target: UniProtKB P22748; experiment: Inhibition of human recombinant carbonic anhydrase 4 preincubated for 15 mins to 72 hrs measured after 15 mins by stopped flow CO2 hydration method
measurement_type: Ki (µM)
One number for each entry, in µM.

Query string: Query (compound): Oc1ccc2ccccc2n1 ; field requested: Ki
Result string: 0.36

----------
target: Carbonic anhydrase 13 (Homo sapiens, UniProt Q8N1Q1); assay: Inhibition of human recombinant carbonic anhydrase 13 preincubated for 15 mins to 72 hrs measured after 15 mins by stopped flow CO2 hydration method
Sequence (Q8N1Q1 whole entry): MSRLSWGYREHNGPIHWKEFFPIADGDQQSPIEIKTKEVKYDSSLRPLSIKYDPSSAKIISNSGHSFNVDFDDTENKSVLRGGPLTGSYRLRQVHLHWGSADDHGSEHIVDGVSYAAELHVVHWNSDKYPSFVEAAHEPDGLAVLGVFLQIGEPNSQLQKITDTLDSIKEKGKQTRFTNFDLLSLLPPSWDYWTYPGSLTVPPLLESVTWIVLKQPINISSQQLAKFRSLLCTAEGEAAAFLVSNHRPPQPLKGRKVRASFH
measurement_type: Ki (nM)
One number for each entry, in nM.

Query string: Query (molecule): Oc1ccc2ccccc2n1 ; field requested: Ki
Result string: 65

----------
molecular target: Carbonic anhydrase 2 (Homo sapiens); test: Inhibition of human recombinant carbonic anhydrase 2 preincubated for 15 mins to 72 hrs measured after 6 hrs by stopped flow CO2 hydration method
pKi: −log10 of the molar value.
Task for the reader: assign each of the following molecules its reported pKi.

Reference set, count: 4
Query string: Query (molecule): O/N=c1/ccc2ccccc2o1 ; field requested: pKi
Result string: < 3.70

Query string: Query (molecule): Cc1cc(C)o/c(=N/O)c1 ; field requested: pKi
Result string: < 3.70

Query string: Query (molecule): CCOP(=S)(OCC)Oc1ccc2c(C)c(Cl)c(=O)oc2c1 [COUMAPHOS] ; field requested: pKi
Result string: < 3.70

Query string: Query (molecule): O=C(S)c1ccccc1 [THIOBENZOIC ACID] ; field requested: pKi
Result string: 4.29

# input for lookup
Query string: Query (molecule): Oc1ccc2ccccc2n1 ; field requested: pKi
Result string: < 3.70

----------
target: Carbonic anhydrase 5A, mitochondrial (Homo sapiens, UniProt P35218); test: Inhibition of human recombinant carbonic anhydrase 5A preincubated for 15 mins to 72 hrs measured after 15 mins by stopped flow CO2 hydration method; details: tested as the Zn salt or complex
measurement_type: Ki (µM)
Answers are plain numbers, in µM.

Query string: Give recorded Ki with Carbonic anhydrase 5A, mitochondrial (Homo sapiens, UniProt P35218) for the following compound: [O-][n+]1ccccc1S
Result string: 5.12

----------
biological target: Carbonic anhydrase 12 (Homo sapiens, UniProt O43570); test: Inhibition of human recombinant carbonic anhydrase 12 preincubated for 15 mins to 72 hrs measured after 15 mins by stopped flow CO2 hydration method
Sequence (O43570 whole entry): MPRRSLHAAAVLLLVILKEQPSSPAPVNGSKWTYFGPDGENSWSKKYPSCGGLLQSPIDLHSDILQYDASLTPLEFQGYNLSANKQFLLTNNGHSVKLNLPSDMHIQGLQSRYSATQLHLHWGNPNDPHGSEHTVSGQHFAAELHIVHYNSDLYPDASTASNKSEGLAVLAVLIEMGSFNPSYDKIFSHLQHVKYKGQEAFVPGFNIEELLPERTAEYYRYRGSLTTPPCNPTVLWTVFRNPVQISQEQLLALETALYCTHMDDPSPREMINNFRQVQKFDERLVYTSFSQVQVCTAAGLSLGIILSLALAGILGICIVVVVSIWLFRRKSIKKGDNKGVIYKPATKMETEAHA
measurement_type: Ki

I need Ki for every entry listed below, if you could help.
1. Oc1ccc2ccccc2n1
2. O=C(S)c1ccccc1

Result string:
["0.093 µM", "2.77 µM"]

----------
target: Carbonic anhydrase 12 (Homo sapiens); assay: Inhibition of human recombinant carbonic anhydrase 12 preincubated for 15 mins to 72 hrs measured after 6 hrs by stopped flow CO2 hydration method; conditions: tested as the Zn salt or complex
measurement_type: pKi
Numbers only, as −log10 of the molar value.

Query string: Query (compound): [O-][n+]1ccccc1S ; field requested: pKi
Result string: 5.27
